The reported numbers originate from the supplement of paper PMC11061612.

- Test system: HL-60 (Acute Myeloid Leukemia);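 note: after 72 h of two-drug dosing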
- ASSAY_PROCEDURE: Bliss excess, mean over the matrix (fraction); higher = more synergy
MEASURE: Bliss excess
Please respond with just the number, no unit label.

Returns the measured Bliss excess for the input molecule. Input: Cc1cc2ncnn2cc1Nc1ncc2c(n1)n(C1CCOCC1)c(=O)n2C [AZD7648] + O=C(c1cc(Cc2n[nH]c(=O)c3ccccc23)ccc1F)N1CCN(C(=O)C2CC2)CC1 [Olaparib] (first compound max 10 µM, 7x7, partner max 10 µM)
-0.0151

What do you get for COc1cccc(OCCCN)c1-c1cc(Nc2cnc(C#N)cn2)n[nH]1 [Prexasertib] + Cc1cc2ncnn2cc1Nc1ncc2c(n1)n(C1CCOCC1)c(=O)n2C [AZD7648] (first compound max 1 µM, 7x7, partner max 10 µM) ?
0.0133

What do you get for CN(C)CCCOc1ccc(-c2ccc3ncc4c(c3c2)n(C2CCOCC2)c(=O)n4C)cn1 [AZD0156] + CCN(CCO)CCCOc1ccc2c(Nc3cc(CC(=O)Nc4cccc(F)c4)[nH]n3)ncnc2c1 [AZD2811] (first compound max 1 µM, 7x7, partner max 1 µM) ?
-0.0762

What do you get for COc1cccc2c1C(=O)c1c(O)c3c(c(O)c1C2=O)C[C@@](O)(C(=O)CO)C[C@@H]3O[C@H]1C[C@H](N)[C@H](O)[C@H](C)O1 [Doxorubicin] + Cc1cc2ncnn2cc1Nc1ncc2c(n1)n(C1CCOCC1)c(=O)n2C [AZD7648] (first compound max 1 µM, 7x7, partner max 10 µM) ?
0.108

What do you get for Cc1c2c(nn1C)CSCc1cc(n(C)n1)CSc1cc(c3ccccc3c1)OCCCc1c(C(=O)O)n(C)c3c-2c(Cl)ccc13 [AZD5991] + Cn1cnc2c(F)c(Nc3ccc(Br)cc3Cl)c(C(=O)NOCCO)cc21 [Selumetinib] (first compound max 1 µM, 7x7, partner max 3 µM) ?
0.0587

What do you get for COc1cccc(OCCCN)c1-c1cc(Nc2cnc(C#N)cn2)n[nH]1 [Prexasertib] + C[C@@H]1COCCN1C2=NC(=NC(=C2)C3(CC3)[S@](=N)(=O)C)C4=C5C=CNC5=NC=C4 [AZD6738] (first compound max 1 µM, 7x7, partner max 10 µM) ?
-0.0289

What do you get for CC1(C)CCC(CN2CCN(c3ccc(C(=O)NS(=O)(=O)c4ccc(NCC5CCOCC5)c([N+](=O)[O-])c4)c(Oc4cnc5[nH]ccc5c4)c3)CC2)=C(c2ccc(Cl)cc2)C1 [Venetoclax] + CCN(CCO)CCCOc1ccc2c(Nc3cc(CC(=O)Nc4cccc(F)c4)[nH]n3)ncnc2c1 [AZD2811] (first compound max 1 µM, 7x7, partner max 1 µM) ?
-0.0385

====

- System: CAMA-1 (Breast Carcinoma)
- ASSAY_PROCEDURE: combination Emax (second highest fraction inhibited in the dose matrix, 72 h); higher = more inhibition; extreme values may be limits of the assay
Provide the recorded combination Emax for the entries that follow.
Please respond with just the number, no unit label.

Returns the measured combination Emax for the input compound. Input: CN(CCO)CC[C@H](CSc1ccccc1)Nc1ccc(S(=O)(=O)NC(=O)c2ccc(N3CCC([C@@H](O)c4ccccc4-c4ccc(Cl)cc4)CC3)cc2)cc1S(=O)(=O)C(F)(F)F [AZD4320] + C1CN(CCC1(C(=O)N[C@@H](CCO)C2=CC=C(C=C2)Cl)N)C3=NC=NC4=C3C=CN4 [Capivasertib] (first compound max 1 µM, 7x7, partner max 3 µM)
0.821

What do you get for C[C@@H](c1ccc2nccn2c1)n1nnc2ncc(-c3cnn(C)c3)nc21 [Savolitinib] + Cc1c2c(nn1C)CSCc1cc(n(C)n1)CSc1cc(c3ccccc3c1)OCCCc1c(C(=O)O)n(C)c3c-2c(Cl)ccc13 [AZD5991] (first compound max 1 µM, 7x7, partner max 1 µM) ?
0.494

What do you get for COc1cccc2c1C(=O)c1c(O)c3c(c(O)c1C2=O)C[C@@](O)(C(=O)CO)C[C@@H]3O[C@H]1C[C@H](N)[C@H](O)[C@H](C)O1 [Doxorubicin] + Cc1cc2ncnn2cc1Nc1ncc2c(n1)n(C1CCOCC1)c(=O)n2C [AZD7648] (first compound max 1 µM, 7x7, partner max 10 µM) ?
0.469

====

Provide the recorded combination Emax for the entries that follow.
- Tested on: MFM-223 (Breast Carcinoma)
- ASSAY_PROCEDURE: combination Emax (second highest fraction inhibited in the dose matrix, 72 h); higher = more inhibition; extreme values may be limits of the assay
Please respond with just the number, no unit label.

Returns the measured combination Emax for the input compound. Input: Cc1c2c(nn1C)CSCc1cc(n(C)n1)CSc1cc(c3ccccc3c1)OCCCc1c(C(=O)O)n(C)c3c-2c(Cl)ccc13 [AZD5991] + CN(C)CCCOc1ccc(-c2ccc3ncc4c(c3c2)n(C2CCOCC2)c(=O)n4C)cn1 [AZD0156] (first compound max 1 µM, 7x7, partner max 1 µM)
0.238

What do you get for CC(=O)c1c(C)c2cnc(Nc3ccc(N4CCNCC4)cn3)nc2n(C2CCCC2)c1=O [Palbociclib] + CN(CC[C@H](CSC1=CC=CC=C1)NC2=C(C=C(C=C2)S(=O)(=O)NC(=O)C3=CC=C(C=C3)N4CCC(CC4)[C@H](C5=CC=CC=C5C6=CC=C(C=C6)Cl)O)S(=O)(=O)C(F)(F)F)CCO [AZD4320] (first compound max 10 µM, 7x7, partner max 1 µM) ?
0.406

What do you get for C=CCn1c(=O)c2cnc(Nc3ccc(N4CCN(C)CC4)cc3)nc2n1-c1cccc(C(C)(C)O)n1 [AZD1775] + C[C@@H]1COCCN1C2=NC(=NC(=C2)C3(CC3)[S@](=N)(=O)C)C4=C5C=CNC5=NC=C4 [AZD6738] (first compound max 1 µM, partner max 10 µM) ?
0.897

====

- System: MS751 (Cervical Carcinoma)
- ASSAY_PROCEDURE: combination Emax (second highest fraction inhibited in the dose matrix, 72 h); higher = more inhibition; extreme values may be limits of the assay
Provide the recorded combination Emax for the entries that follow.
Please respond with just the number, no unit label.

Returns the measured combination Emax for the input compound. Input: NC1(C(=O)N[C@@H](CCO)c2ccc(Cl)cc2)CCN(c2ncnc3[nH]ccc23)CC1 [Capivasertib] + C[C@@H]1COCCN1C2=NC(=NC(=C2)C3(CC3)[S@](=N)(=O)C)C4=C5C=CNC5=NC=C4 [AZD6738] (first compound max 10 µM, 7x7, partner max 10 µM)
0.498

What do you get for C=CCn1c(=O)c2cnc(Nc3ccc(N4CCN(C)CC4)cc3)nc2n1-c1cccc(C(C)(C)O)n1 [AZD1775] + C1CN(CCC1(C(=O)N[C@@H](CCO)C2=CC=C(C=C2)Cl)N)C3=NC=NC4=C3C=CN4 [Capivasertib] (first compound max 3 µM, partner max 3 µM) ?
0.899

What do you get for COc1cc2ncnc(Nc3ccc(F)c(Cl)c3)c2cc1OCCCN1CCOCC1 [Gefitinib] + CC(C)n1c(=O)n(C)c2cnc3cc(F)c(-c4ccc(OCCCN5CCCCC5)nc4)cc3c21 [AZD1390] (first compound max 10 µM, 7x7, partner max 0.3 µM) ?
0.133

What do you get for NC1(C(=O)N[C@@H](CCO)c2ccc(Cl)cc2)CCN(c2ncnc3[nH]ccc23)CC1 [Capivasertib] + CC(C)n1c(=O)n(C)c2cnc3cc(F)c(-c4ccc(OCCCN5CCCCC5)nc4)cc3c21 [AZD1390] (first compound max 10 µM, 7x7, partner max 0.3 µM) ?
0.19

====

Provide the recorded combination Emax for the entries that follow.
- Tested on: DND-41 (T-Lymphoblastic Leukemia)
- ASSAY_PROCEDURE: combination Emax (second highest fraction inhibited in the dose matrix, 72 h); higher = more inhibition; extreme values may be limits of the assay
Please respond with just the number, no unit label.

Returns the measured combination Emax for the input compound. Input: CN(C)CCCOc1ccc(-c2ccc3ncc4c(c3c2)n(C2CCOCC2)c(=O)n4C)cn1 [AZD0156] + C=CCn1c(=O)c2cnc(Nc3ccc(N4CCN(C)CC4)cc3)nc2n1-c1cccc(C(C)(C)O)n1 [AZD1775] (first compound max 1 µM, partner max 1 µM)
0.848

What do you get for Cc1cc2ncnn2cc1Nc1ncc2c(n1)n(C1CCOCC1)c(=O)n2C [AZD7648] + CN(C)CCCOc1ccc(-c2ccc3ncc4c(c3c2)n(C2CCOCC2)c(=O)n4C)cn1 [AZD0156] (first compound max 10 µM, 7x7, partner max 1 µM) ?
0.242

What do you get for COc1cccc2c1C(=O)c1c(O)c3c(c(O)c1C2=O)C[C@@](O)(C(=O)CO)C[C@@H]3O[C@H]1C[C@H](N)[C@H](O)[C@H](C)O1 [Doxorubicin] + Cc1cc2ncnn2cc1Nc1ncc2c(n1)n(C1CCOCC1)c(=O)n2C [AZD7648] (first compound max 1 µM, 7x7, partner max 10 µM) ?
0.889

What do you get for CC(=O)c1c(C)c2cnc(Nc3ccc(N4CCNCC4)cn3)nc2n(C2CCCC2)c1=O [Palbociclib] + Cn1cnc2c(F)c(Nc3ccc(Br)cc3Cl)c(C(=O)NOCCO)cc21 [Selumetinib] (first compound max 10 µM, 7x7, partner max 10 µM) ?
0.489
